tested-on: human α7 nAChRs transiently expressed in Xenopus laevis oocytes (Homo sapiens (Human))
assay-notes: Oocyte electrophysiology screen (TEVC)
Format: cell-based
particulars: 0.01 mM test compound, peak current relative to 0.2 mM ACh
Where a name gives a salt, the structure may show the parent alone.
endpoint-name: % ACh @ 10 μM Oocyte (% ACh)
Give bare numbers, in % ACh.

Take a look at these entries with their results.
> print(dat)
                                   compound         endpoint.name  test.result
1  O=C(NC1C2CCN(CC2)C12CC2)c1cc2ccc(F)cc2s1 (single isomer, unassigned; enantiomer1) [61a]  % ACh @ 10 μM Oocyte         1493
2  CC1(C)[C@H](NC(=O)c2ccc3ccoc3c2)C2CCN1CC2 [(R)-31, hydrochloride]  % ACh @ 10 μM Oocyte          294
3  CC1(C)[C@@H](NC(=O)c2cc3cc(Cl)ccc3s2)C2CCN1CC2 [(S)-13, hydrochloride]  % ACh @ 10 μM Oocyte            3

The following compounds each have a reported value; give each one's % ACh @ 10 μM Oocyte.
1. CC1(C)[C@H](NC(=O)c2cc3ccc(C4CC4)cc3s2)C2CCN1CC2 [(R)-18, hydrochloride]
2. Cl.O=C(N[C@@H]1C2CCN(CC2)C12CC2)c1cc2c(cn1)OCCO2 [(R)-76]
3. O=C(NC1C2CCN(CC2)C12CC2)c1cc2cc(Cl)c(Cl)cc2s1 (single isomer, unassigned; enantiomer2) [67b, hydrochloride]
4. O=C(N[C@@H]1C2CCN(CC2)C12CC2)c1ccc2cc[nH]c2c1 [(R)-79]
5. CC1(C)[C@H](NC(=O)c2ccc3cc[nH]c3c2)C2CCN1CC2 [(R)-26, hydrochloride]

Return:
1: 422; 2: 129; 3: 1; 4: 758; 5: 687

The following compounds each have a reported value; give each one's % ACh @ 10 μM Oocyte.
1. CC1(C)[C@H](NC(=O)c2cnn3ncccc23)C2CCN1CC2 [(R)-27, hydrochloride]
2. O=C(N[C@@H]1C2CCN(CC2)C12CC2)c1nc2ccccc2s1 [(R)-82, hydrochloride]

Return:
0
239

* * *

Would you mind telling me the reported % ACh @ 10 μM Oocyte of each entry?
tested-on: human α7 nAChRs transiently expressed in Xenopus laevis oocytes (Homo sapiens (Human), UniProt P36544)
Sequence (P36544 23-502 limits assumed): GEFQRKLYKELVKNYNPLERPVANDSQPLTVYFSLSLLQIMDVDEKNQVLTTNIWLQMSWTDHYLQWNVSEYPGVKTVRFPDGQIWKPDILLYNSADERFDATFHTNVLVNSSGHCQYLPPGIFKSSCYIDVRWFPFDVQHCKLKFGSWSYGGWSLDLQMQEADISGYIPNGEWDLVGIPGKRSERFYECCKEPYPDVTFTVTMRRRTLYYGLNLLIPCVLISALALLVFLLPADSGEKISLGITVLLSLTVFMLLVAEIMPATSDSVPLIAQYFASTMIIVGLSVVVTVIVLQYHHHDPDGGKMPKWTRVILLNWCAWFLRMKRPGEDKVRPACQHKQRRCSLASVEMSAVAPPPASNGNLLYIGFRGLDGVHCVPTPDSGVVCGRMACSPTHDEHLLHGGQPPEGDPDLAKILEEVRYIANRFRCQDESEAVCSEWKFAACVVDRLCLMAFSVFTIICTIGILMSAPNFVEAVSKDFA
assay-notes: Oocyte electrophysiology screen (TEVC)
Format: cell-based
particulars: 0.01 mM test compound, peak current relative to 0.2 mM ACh
Counter-ions that a name gives are not always drawn.

Take a look at these entries with their results.
> print(dat)
                                   molecule         endpoint.name  test.result
1  O=C(N[C@@H]1C2CCN(CC2)C12CC2)c1ccc2ccoc2c1 [(R)-84, hydrochloride]  % ACh @ 10 μM Oocyte    341 % ACh
2  Cc1ccc2cc(C(=O)N[C@@H]3C4CCN(CC4)C3(C)C)sc2c1F [(R)-53, hydrochloride]  % ACh @ 10 μM Oocyte    576 % ACh

The record that follows has no % ACh @ 10 μM Oocyte shown yet.
Enquiry: % ACh @ 10 μM Oocyte lookup needed for O=C(N[C@H]1C2CCN(CC2)C12CC2)c1cc2cccnc2s1 [(S)-81, hydrochloride] , thanks.
Return: 1 % ACh

* * *

tested-on: human α7 nAChRs transiently expressed in Xenopus laevis oocytes (Homo sapiens (Human), UniProt P36544)
assay-notes: Oocyte electrophysiology screen (TEVC)
Format: cell-based
particulars: 0.01 mM test compound, peak current relative to 0.2 mM ACh
Counter-ions that a name gives are not always drawn.
Would you mind telling me the reported % ACh @ 10 μM Oocyte of each entry?

Take a look at these entries with their results.
> print(dat)
                                   compound  test.result
1  CC1(C)[C@@H](NC(=O)c2cc3ccc(C4CC4)cc3s2)C2CCN1CC2 [(S)-18, hydrochloride]      1 % ACh
2  CC1(C)[C@@H](NC(=O)c2cc3cccc(C(F)(F)F)c3s2)C2CCN1CC2 [(S)-7, hydrochloride]      2 % ACh
3  CC1(C)[C@H](NC(=O)c2cc3ccsc3cn2)C2CCN1CC2 [(R)-43, hydrochloride]    951 % ACh
4  O=C(N[C@@H]1C2CCN(CC2)C12CC2)c1ccc2occ(Cl)c2c1 [(R)-94, hydrochloride]    812 % ACh
5  CC1(C)[C@H](NC(=O)c2ccc3sccc3c2)C2CCN1CC2 [(R)-30, hydrochloride]    396 % ACh

The following compounds each have a reported value; give each one's % ACh @ 10 μM Oocyte.
1. COc1ccc2sc(C(=O)N[C@@H]3C4CCN(CC4)C3(C)C)cc2c1 [(R)-21, hydrochloride]
2. CC1(C)[C@H](NC(=O)c2cc3cccc(F)c3s2)C2CCN1CC2 [(R)-4, hydrochloride]
3. CC1(C)[C@H](NC(=O)c2cc3ccoc3cn2)C2CCN1CC2 [(R)-22, hydrochloride]

Return:
["73 % ACh", "1060 % ACh", "456 % ACh"]

* * *

tested-on: human α7 nAChRs transiently expressed in Xenopus laevis oocytes (Homo sapiens (Human), UniProt P36544)
assay-notes: Oocyte electrophysiology screen (TEVC)
Assay type: cell-based
particulars: 0.01 mM test compound, peak current relative to 0.2 mM ACh
Counter-ions that a name gives are not always drawn.
// classify: if (% ACh @ 10 μM Oocyte < 5 % ACh) met else not met

> print(dat)
                                   molecule    label
1  O=C(N[C@@H]1C2CCN(CC2)C12CC2)c1ccc2c(c1)OCCO2 [(R)-107, hydrochloride]  not met
2  O=C(N[C@@H]1C2CCN(CC2)C12CC2)c1cc2ccoc2cn1 [(R)-75, hydrochloride]  not met
3  O=C(N[C@@H]1C2CCN(CC2)C12CC2)c1cnc2occc2c1 [(R)-89, hydrochloride]      met

Enquiry: Lab log: compare recorded % ACh @ 10 μM Oocyte with 5 % ACh; is it strictly lower for Cc1ccc2cc(C(=O)N[C@@H]3C4CCN(CC4)C34CC4)sc2c1Cl [(R)-156, hydrochloride] ?
Return: not met

Enquiry: Lab log: compare recorded % ACh @ 10 μM Oocyte with 5 % ACh; is it strictly lower for CC1(C)[C@H](NC(=O)c2cc3cc(C4CC4)ccc3s2)C2CCN1CC2 [(R)-19, hydrochloride] ?
Return: not met

Enquiry: Lab log: compare recorded % ACh @ 10 μM Oocyte with 5 % ACh; is it strictly lower for Cc1ccc2cc(C(=O)N[C@@H]3C4CCN(CC4)C3(C)C)sc2c1Cl [(R)-52, hydrochloride] ?
Return: not met

Enquiry: Lab log: compare recorded % ACh @ 10 μM Oocyte with 5 % ACh; is it strictly lower for Cn1cnc2cc(C(=O)N[C@@H]3C4CCN(CC4)C3(C)C)ccc21 [(R)-42, hydrochloride] ?
Return: met

Enquiry: Lab log: compare recorded % ACh @ 10 μM Oocyte with 5 % ACh; is it strictly lower for O=C(NC1C2CCN(CC2)C12CC2)c1cc2cc(F)ccc2s1 (single isomer, unassigned; enantiomer2) [64b] ?
Return: met

* * *

tested-on: human 5-HT3 serotonin receptors (Homo sapiens (Human), UniProt P46098)
Sequence (P46098 24-478): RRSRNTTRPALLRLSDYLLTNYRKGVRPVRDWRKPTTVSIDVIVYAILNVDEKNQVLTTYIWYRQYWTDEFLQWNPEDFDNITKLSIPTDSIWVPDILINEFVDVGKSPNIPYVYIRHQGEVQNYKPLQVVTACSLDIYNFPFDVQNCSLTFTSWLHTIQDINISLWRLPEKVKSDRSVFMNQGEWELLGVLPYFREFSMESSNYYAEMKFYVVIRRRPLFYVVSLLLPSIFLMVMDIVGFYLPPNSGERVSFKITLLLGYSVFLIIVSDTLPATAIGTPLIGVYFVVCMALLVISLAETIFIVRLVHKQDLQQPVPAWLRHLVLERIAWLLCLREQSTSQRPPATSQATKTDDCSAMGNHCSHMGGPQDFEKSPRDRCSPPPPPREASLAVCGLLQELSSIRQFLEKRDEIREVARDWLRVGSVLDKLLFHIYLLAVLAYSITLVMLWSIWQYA
assay-notes: [3H]BRL 43694 competition binding
particulars: CHO cell membranes, [3H]BRL 43694, Cheng Prusoff; read-out: h-5HT3 Ki
Where a name gives a salt, the structure may show the parent alone.
endpoint-name: Ki (nM)
One number for each entry, in nM.

The following compounds each have a reported value; give each one's Ki.
1. O=C(NC1C2CCN(CC2)C12CC2)c1cc2ccc(F)cc2s1 (single isomer, unassigned; enantiomer1) [61a]
2. CC1(C)[C@H](NC(=O)c2cc3cccc(F)c3s2)C2CCN1CC2 [(R)-4, hydrochloride]
3. CC1(C)[C@H](NC(=O)c2cc3ccsc3cn2)C2CCN1CC2 [(R)-43, hydrochloride]

Return:
[1500, 870, 1500]

* * *

tested-on: human 5-HT3 serotonin receptors (Homo sapiens (Human))
assay-notes: [3H]BRL 43694 competition binding
particulars: CHO cell membranes, [3H]BRL 43694, Cheng Prusoff; read-out: h-5HT3 Ki
pKi: −log10 of the molar value. Structures can show the parent of a compound that is named as a salt.
endpoint-name: pKi

Take a look at these entries with their results.
> print(dat)
                                   compound  test.result
1  CC1(C)[C@H](NC(=O)c2cc3c(cn2)OCCO3)C2CCN1CC2 [(R)-23, hydrochloride]       < 5.00
2  CC1(C)[C@H](NC(=O)c2cc3ccc(C4CC4)cc3s2)C2CCN1CC2 [(R)-18, hydrochloride]       < 5.00
3  Cc1ccc2cc(C(=O)N[C@@H]3C4CCN(CC4)C3(C)C)sc2c1C(F)(F)F [(R)-113, hydrochloride]       < 5.00
4  O=C(N[C@@H]1C2CCN(CC2)C12CC2)c1ccc2oc(C3CC3)cc2c1 [(R)-183, hydrochloride]       < 5.00
5  CC1(C)[C@H](NC(=O)c2cc3ccc(Cl)c(C(F)(F)F)c3s2)C2CCN1CC2 [(R)-111, hydrochloride]       < 5.00

The record that follows has no pKi shown yet.
Enquiry: pKi lookup needed for CC1(C)[C@H](NC(=O)c2ccc3occc3c2)C2CCN1CC2 [(R)-6, hydrochloride] , thanks.
Return: < 5.00

This collection of values is drawn from patent US10183938B2.
